The origin of these recorded values is PubChem BioAssay.

assay-system: Follistatin-related protein 3 (Homo sapiens) (UniProt O95633)
Sequence (O95633 whole entry, looked up): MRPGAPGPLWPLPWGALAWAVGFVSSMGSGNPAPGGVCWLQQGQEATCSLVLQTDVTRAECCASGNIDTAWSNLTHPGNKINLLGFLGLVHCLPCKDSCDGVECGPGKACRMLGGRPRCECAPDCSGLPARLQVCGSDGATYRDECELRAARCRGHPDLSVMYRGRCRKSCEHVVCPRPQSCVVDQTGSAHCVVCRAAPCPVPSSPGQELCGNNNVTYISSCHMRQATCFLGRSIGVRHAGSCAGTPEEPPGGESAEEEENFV
assay-summary: compounds binding follistatin-related protein 3 – biochemical, small-molecule microarray, 635 nm fluorescence, primary screen (AID 1105);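 also: score merges emission near 667 nm and signal to noise per printed spot across three slides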
experimental-setup: FSTL3 binding, higher = more signal
composite z-score vs 0.8: at or above is met, below is not met.

*Q* Could you verify whether the entry Cc1ccc([C@H]2C(C(=O)O)=C[C@@H](C(C)C)N2S(=O)(=O)c2ccc(C)cc2)cc1 shows composite z-score of no less than 0.8?
*A* not met

*Q* Has C/C=C/[C@H](CCn1cc([C@H](O)c2ccccc2)nn1)[Si](C)(C)c1ccc(OC)cc1 a recorded composite z-score greater than or equal to 0.8?
*A* not met

*Q* Form field: composite z-score at least 0.8? Entry: CN1C(=O)C2C(C1=O)C1C=C(c3ccc(CO)cc3)C2C(C2CC2)N1Cc1sc2ccccc2c1Cl (stereo not given)
*A* met

*Q* Hi, just wondering whether COCCOC(=O)N1C(=O)[C@@]2(c3cc(C#CC4=CCCCC4)ccc31)[C@H](C(=O)N1CCN(c3ncccn3)CC1)[C@H]1C(=O)O[C@H](c3ccccc3)[C@H](c3ccccc3)N1[C@@H]2c1ccc(OCCO)cc1 shows composite z-score of 0.8 or higher.
*A* met

====

assay-system: Concanavalin-A (Canavalia ensiformis)
assay-summary: compounds binding concanavalin A lectin – biochemical, small-molecule microarray, Alexa647 label, 635 nm, artefact control for SMM control protein annotation, primary screen (AID 1127);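 also: z combines 667 nm emission intensity with signal-to-noise across three replicate slides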
experimental-setup: ConA-A647 binding fluorescence, higher = more signal
Could you please report measured composite z-score for the items listed next?

Form field, composite z-score with Concanavalin-A (Canavalia ensiformis), item O=C1C2C=CC(C(O)C3CC=CCC3)N(n3cnnc3)C2C(=O)N1Cc1ccccc1 (centres undefined) : -0.137

Lab entry: Concanavalin-A (Canavalia ensiformis) assay, compound COc1ccc([Si](C)(C)[C@@H]2[C@@H](CCn3cc([C@H](O)c4ccccc4)nn3)O[C@]3(C(=O)N(C)c4ccccc43)[C@H]2C)cc1 , composite z-score = 0.44

Reported composite z-score (Concanavalin-A (Canavalia ensiformis)) for entry Cc1ccc(S[C@]2(C(=O)NCCCN(C)C)CC(=O)N(Cc3ccccc3)[C@@H]2c2ccc(CO)cc2)cc1 is -0.785

The observed composite z-score for CC(=O)n1cc(C(O)C2C=CC3C(=O)N(c4ccccc4)C(=O)C3N2Nc2ccc(C#N)cc2)c2ccccc21 (centres undefined) when tested with Concanavalin-A (Canavalia ensiformis) stands at 0.876

The reported Concanavalin-A (Canavalia ensiformis) composite z-score of O[C@@H](Cc1ccccc1)[C@@H](/C=C/c1ccccc1)NCc1ccccc1Br is -1.05

The compound NC(=O)[C@@]1(CCS(=O)(=O)c2ccccc2)N=C(c2ccc(OCCCO)cc2)O[C@H]1c1ccccc1 , tested on Concanavalin-A (Canavalia ensiformis), showed composite z-score of 1.14

Record COCCOC(=O)N1C(=O)[C@@]2(c3cc(C#CCCO)ccc31)[C@H](c1ccc(O)cc1)N1[C@H](c3ccccc3)[C@H](c3ccccc3)OC(=O)[C@H]1[C@@H]2C(=O)N1CCCCCCC1 / Concanavalin-A (Canavalia ensiformis), composite z-score recorded as 1.1

Param item: CCCC[C@@H]1C[C@H]1[C@@H](NC(=O)c1ccccc1)c1ccc(-c2ccccc2)cc1 ; param system: Concanavalin-A (Canavalia ensiformis); output composite z-score: 0.147

Concanavalin-A (Canavalia ensiformis) composite z-score of C=CC[C@@]1(C(N)=O)N=C(c2ccc(OCCCO)cc2)O[C@@H]1c1ccccc1N=[N+]=[N-] is 0.126

====

assay-summary: COS7 lysate on small-molecule microarray, probe aHis, 635 nm (AID 1123);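 also: z-score combines 667nm fluorescence intensity with signal-to-noise per printed compound spot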
experimental-setup: COS7 cell lysate, fluorescence, higher = more signal
metric-name: composite z-score
Hey, just send me the number, nothing else.

In plain terms, CN1C(=O)C2C=CC(C(O)C=Cc3ccc([N+](=O)[O-])cc3)N(N3CCCCC3)C2C1=O (centres undefined) has a documented composite z-score of 2.1

The reported composite z-score of the compound C=CCCN(CC#C[C@H]1Oc2ccccc2S(=O)(=O)N2CCC[C@@H]12)S(=O)(=O)c1ccc(C)cc1 was 0.273

Given item CC(=O)NCCCC[C@@H]1NC(=O)[C@@H]2C[C@H](C(=O)NCc3ccc(F)cc3)[C@H](c3ccc(O)cc3)N2C1=O , the value recorded as its composite z-score is 1.79

Please fill in: composite z-score reported for O=C1C2C=CC(C(O)c3ccc(B(O)O)cc3)N(Nc3ccc([N+](=O)[O-])cc3)C2C(=O)N1c1ccccc1 (centres undefined) = 2.02

// field: composite z-score; key: Cc1ccc([C@H]2C(C(=O)O)=C[C@@H](C(C)C)N2S(=O)(=O)c2ccc(C)cc2)cc1 ; value = 2.86

Recorded composite z-score (compound Cc1ccc(N2C(=O)c3ccccc3[C@@H](C(=O)NC(C)C)[C@@H]2c2ccc(CO)cc2)nc1 ): 0.971

Just so you know, measured composite z-score for COCC1C2CC[C@H]3C(OCc4ccc(F)cc4C(F)(F)F)OC[C@]4(C)[C@H]3C2=C(CN4C(=O)OC(C)(C)C)[C@H](C)C1COC (some centres undefined) came out at 3.39

Entry C=CC[C@@]1(C(=O)NCc2ccccc2)N=C(c2ccc(OCCCO)cc2)O[C@@H]1c1ccccc1CN=[N+]=[N-] , composite z-score reported as 2.95

In plain terms, CC(C)[Si]1(C(C)C)O[C@@H](c2ccccc2)c2cc(-c3ccc(-c4ccc(Cl)c(Cl)c4)o3)nc(CCc3ccccc3)c21 has a documented composite z-score of 0.143

====

assay-system: Pro-neuregulin-1, membrane-bound isoform (Homo sapiens) (UniProt Q02297)
Sequence (Q02297 whole entry, looked up, canonical isoform): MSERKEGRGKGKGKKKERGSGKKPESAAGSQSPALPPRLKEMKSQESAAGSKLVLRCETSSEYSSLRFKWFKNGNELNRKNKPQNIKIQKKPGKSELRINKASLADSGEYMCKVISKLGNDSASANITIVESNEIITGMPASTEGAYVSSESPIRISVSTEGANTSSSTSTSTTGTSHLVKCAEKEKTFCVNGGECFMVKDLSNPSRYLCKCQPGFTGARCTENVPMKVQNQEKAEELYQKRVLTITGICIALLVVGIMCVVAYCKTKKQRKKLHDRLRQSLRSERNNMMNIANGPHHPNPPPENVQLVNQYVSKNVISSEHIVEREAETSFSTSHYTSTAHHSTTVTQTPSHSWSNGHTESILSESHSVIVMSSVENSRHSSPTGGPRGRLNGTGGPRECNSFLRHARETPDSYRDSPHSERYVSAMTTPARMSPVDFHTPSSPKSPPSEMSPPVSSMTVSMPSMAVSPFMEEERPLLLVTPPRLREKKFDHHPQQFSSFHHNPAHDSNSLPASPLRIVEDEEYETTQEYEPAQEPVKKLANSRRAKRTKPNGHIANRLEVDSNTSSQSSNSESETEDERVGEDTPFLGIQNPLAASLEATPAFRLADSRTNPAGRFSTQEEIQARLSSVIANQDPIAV
assay-summary: small molecules binding neuregulin-1 protein – biochemical, small-molecule microarray, fluorescence 635/667, psychiatric disease protein project, primary screen (AID 1075);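 also: score combines 667 nm spot fluorescence with signal to noise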
experimental-setup: NRG1 binding, 635 nm fluorescence, higher = more signal
If the reported composite z-score equals or exceeds 0.4, assign true (1). If not, assign false (0).

*Q* API: above_or_equal(metric=composite z-score, cutoff=0.4) for item CN1C(=O)C2C=CC(C(O)C=Cc3ccc([N+](=O)[O-])cc3)N(N3CCCCC3)C2C1=O (stereo not given)
*A* true (1)

*Q* Confirm if composite z-score reported for the compound CCCCN1CC=CC23O[C@@H]4C=CCCOC(=O)C4[C@H]2C(=O)N(CCCO)[C@@H]3C1=O (stereo not given in full) is 0.4 or above.
*A* false (0)

*Q* Test whether the compound CC(=O)NCCCC[C@@H]1NC(=O)[C@@H]2C[C@H](C(=O)NCc3ccc(F)cc3)[C@H](c3ccc(O)cc3)N2C1=O records composite z-score of 0.4 or higher.
*A* true (1)

*Q* Hello, I need to know if COc1ccc([Si](C)(C)[C@@H]2[C@@H](CCO)O[C@]3(C(=O)N(Cc4ccccc4)c4ccc(N(C=O)c5ccccc5)cc43)[C@H]2C)cc1 has measured composite z-score not below 0.4. Thanks!
*A* false (0)

*Q* State whether the measured composite z-score reaches 0.4, counting equality as reaching it, for C[C@H]1C2[C@H](Cc3ccccc3)NC(=O)[C@]23C(=O)N[C@H](Cc2ccccc2)C(=O)N[C@H](Cc2ccccc2)C(=O)NC/C=C/CCC/C=C/C3[C@@H]2O[C@]12C (stereo not given in full)
*A* false (0)

====

assay-system: NADPH oxidase 5 (Homo sapiens) (UniProt Q96PH1)
Sequence (Q96PH1 whole entry, looked up): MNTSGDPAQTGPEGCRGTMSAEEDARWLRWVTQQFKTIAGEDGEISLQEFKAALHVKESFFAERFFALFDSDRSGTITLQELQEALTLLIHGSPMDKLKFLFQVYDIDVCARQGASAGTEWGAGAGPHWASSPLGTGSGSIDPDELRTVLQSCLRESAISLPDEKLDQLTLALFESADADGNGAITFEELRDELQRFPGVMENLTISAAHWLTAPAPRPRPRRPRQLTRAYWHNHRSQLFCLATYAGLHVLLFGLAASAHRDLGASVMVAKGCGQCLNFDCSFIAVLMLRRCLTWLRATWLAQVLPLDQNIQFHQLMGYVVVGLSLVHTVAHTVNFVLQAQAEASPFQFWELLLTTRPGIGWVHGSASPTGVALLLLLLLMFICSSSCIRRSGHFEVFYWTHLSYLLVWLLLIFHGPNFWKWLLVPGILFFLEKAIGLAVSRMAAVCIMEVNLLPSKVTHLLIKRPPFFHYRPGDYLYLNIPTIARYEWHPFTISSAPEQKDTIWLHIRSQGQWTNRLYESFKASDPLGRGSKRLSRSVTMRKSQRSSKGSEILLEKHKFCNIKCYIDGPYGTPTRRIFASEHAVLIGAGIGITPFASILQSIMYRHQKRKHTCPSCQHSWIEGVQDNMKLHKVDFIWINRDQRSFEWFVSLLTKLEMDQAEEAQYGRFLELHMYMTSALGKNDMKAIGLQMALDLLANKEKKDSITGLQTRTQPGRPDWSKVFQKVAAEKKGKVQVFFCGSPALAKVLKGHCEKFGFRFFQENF
assay-summary: compounds shifting NOX5 Amplex Red fluorescence – cell-based, HEK293-NOX5, NOX inhibitor project, primary screen (AID 1161)
experimental-setup: HEK293-NOX5, ionomycin, 45 min, higher = more signal
Provide the reported z-score of each item.
The reply should be a number, written without any unit.

Just so you know, measured z-score for C[N+](C)(C)CCCCNC(=O)[C@H]1C[C@H]2C(=O)N3CCC[C@H]3C(=O)N2[C@H]1c1ccc(O)cc1 came out at -1.42

Looking up O=C1NC(=O)C2C1C=CC(C(O)c1cccs1)N2Nc1ccccn1 (configuration not stated) , I see its z-score listed as -0.795

Entry O=C1[C@H]2C=C(Br)[C@H](C[C@@H]2OCCOCCO)[C@@]12CO2 — recorded z-score = 0.0214

Documented z-score of COC(=O)[C@@]1(Cc2ccccc2)[C@H]2c3cc(C(=O)N(C)C)n(Cc4cc(F)c(F)c(F)c4)c3C[C@H]2CN1C(=O)c1ccccc1 : 2.13

CCOC(=O)C[C@H]1[C@H](OC(=O)c2ccccc2-c2ccccc2)[C@@H](NC(=O)c2ccc(-c3ccccc3)cc2)c2cc(OCCCO)ccc2N1C(=O)c1ccccc1 yielded z-score of 1.46

Briefly, z-score measured for [N-]=[N+]=NCc1ccccc1C[C@]1(C(=O)NCc2ccccc2)COC(c2ccc(OCCCO)cc2)=N1 : -1.81

z-score reported for this compound O=C1OCCC/C=C\[C@H]2OC34C=CCN(Cn5nnc6ccccc65)C(=O)[C@H]3N(CCCO)C(=O)[C@@H]4C12 (some centres not stated) : 2.02

Please fill in: z-score reported for O=C1C2C=CC(C(O)C3CC=CCC3)N(n3cnnc3)C2C(=O)N1Cc1ccccc1 (configuration not stated) = -1.34

What the record says about C#C[C@H]1Oc2ccccc2S(=O)(=O)N2CCC[C@@H]12 : z-score is -0.494

Entry C=CCC(OC(C)=O)[C@@H]1[C@@H](N(Cc2ccc(-c3ccccc3)cc2)C(=O)c2ccc(C)cc2)c2cc(OCCCO)ccc2N1C(=O)Cc1ccc(OC)cc1 (some centres not stated) ; z-score = 2.57

The compound identified as C[C@H]1C2[C@H](Cc3ccccc3)NC(=O)[C@]23C(=O)N[C@H](Cc2ccccc2)C(=O)N[C@H](Cc2ccccc2)C(=O)NC/C=C/CCC/C=C/C3[C@@H]2O[C@]12C (some centres not stated) registered its z-score at 0.875

For record Cc1ccc(C(C)CC(O)C2C=CC3C(=O)NC(=O)C3N2Nc2ccccn2)o1 (configuration not stated) the listed z-score is -1.52
